# TARGET OR SYSTEM: human glucagon-like peptide 1 receptor (GLP-1R) (human, UniProt P43220 24-463)
# ASSAY SUMMARY: cell-based or functional assay
Bridges are numbered along the chain shown (N, C = ends). Primed or numbered codes have the meaning given here. Where no end group is shown, it is not given here. [ ]: non-standard residue; d: D form. L1″ = C4 bis(bromoacetamide) staple without lipid, joins two Cys through thioethers; L6″ = as L5, made on Rink amide resin, joins two Cys through thioethers; L1 = C4 bis(bromoacetamide) staple without lipid; L4 = octadecanedioic acid-PEG-ornithine staple; L5 = C18 diacid-Lys-PEG2-ornithine staple; L6 = made as L5 but on Rink amide resin; L11 = not defined here; L8 = not defined here; L9 = not defined here
PARAMETER MEASURED: EC50, CRE-luciferase reporter in HEK293-GLP-1R-CRE cells (nM)
Response body: numeric value in nM, unit text excluded.

[Q] # EC50, CRE-luciferase reporter in HEK293-GLP-1R-CRE cells lookup, item H[dS]QGTFTSDYSKYLDECAAKEFICWLMNTKRNRNNIA (linker 17-24 via L5) [mTA 18: OXM (B) and L5]
[A] 0.2

[Q] # EC50, CRE-luciferase reporter in HEK293-GLP-1R-CRE cells lookup, item H[dS]QGTFTSDYSKYLDECAAKEFICWLMNTKRNRNNIA (linker 17-24 via L11; reading uncertain; also: printed as HsQGTFTSDYSKYLDEXAAKEFIXWLMNTKRNRNNIA) [mTA 24: OXM (B) and L11]
[A] 0.2

[Q] # EC50, CRE-luciferase reporter in HEK293-GLP-1R-CRE cells lookup, item H[dS]QGTFTSDYSKYLDECAAKEFICWLLRA (linker 17-24 via L5) [mTA 32: GLP-1/Glucagon (B) and L5]
[A] 0.3

[Q] # EC50, CRE-luciferase reporter in HEK293-GLP-1R-CRE cells lookup, item H[dS]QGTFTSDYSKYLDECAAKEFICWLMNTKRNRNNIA (linker 17-24 via L9; not fully specified; printed as HsQGTFTSDYSKYLDEXAAKEFIXWLMNTKRNRNNIA; reading uncertain) [mTA 22: OXM (B) and L9]
[A] 40

[Q] # EC50, CRE-luciferase reporter in HEK293-GLP-1R-CRE cells lookup, item H[dS]QGTFTSDYSKYLDSCAAHDFVCWLLRA (linker 17-24 via L1) [mTA 27: GLP-1/Glucagon (A) and L1]
[A] 0.2

[Q] # EC50, CRE-luciferase reporter in HEK293-GLP-1R-CRE cells lookup, item H[dS]QGTFTSDYSKYLDECAAKEFICWLLRAGPSSGAPPPS (linker 17-24 via L6) [mTA 36: GLP-1/Glucagon (C) and L6]
[A] 0.3

[Q] # EC50, CRE-luciferase reporter in HEK293-GLP-1R-CRE cells lookup, item H[dS]QGTFTSDYSKYLDECAAKEFICWLLNGGPSSGAPPPS (linker 17-24 via L5) [mTA 38: GLP-1/Glucagon (D) and L5]
[A] 0.04

[Q] # EC50, CRE-luciferase reporter in HEK293-GLP-1R-CRE cells lookup, item H[dS]QGTFTSDYSKYLDECAAKEFICWLLNGGPSSGAPPPS (linker 17-24 via L6) [mTA 39: GLP-1/Glucagon (D) and L6]
[A] 0.04

[Q] # EC50, CRE-luciferase reporter in HEK293-GLP-1R-CRE cells lookup, item H[dS]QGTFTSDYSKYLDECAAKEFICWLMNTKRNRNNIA (linker 17-24 via L6″) [mTA 19: OXM (B) and L6]
[A] 0.2

[Q] # EC50, CRE-luciferase reporter in HEK293-GLP-1R-CRE cells lookup, item H[dS]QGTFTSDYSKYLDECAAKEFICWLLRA (linker 17-24 via L4) [mTA 31: GLP-1/Glucagon (B) and L4]
[A] 0.03

[Q] # EC50, CRE-luciferase reporter in HEK293-GLP-1R-CRE cells lookup, item H[dS]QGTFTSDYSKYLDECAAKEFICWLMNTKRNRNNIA (linker 17-24 via L8; reading uncertain; also: printed as HsQGTFTSDYSKYLDEXAAKEFIXWLMNTKRNRNNIA) [mTA 21: OXM (B) and L8]
[A] 0.12

[Q] # EC50, CRE-luciferase reporter in HEK293-GLP-1R-CRE cells lookup, item H[dS]QGTFTSDYSKYLDECAAKEFICWLLRAGPSSGAPPPS (linker 17-24 via L4) [mTA 34: GLP-1/Glucagon (C) and L4]
[A] 0.04

[Q] # EC50, CRE-luciferase reporter in HEK293-GLP-1R-CRE cells lookup, item H[dS]QGTFTSDYSKYLDECAAKEFICWLLNGGPSSGAPPPS (linker 17-24 via L4) [mTA 37: GLP-1/Glucagon (D) and L4]
[A] 0.03

[Q] # EC50, CRE-luciferase reporter in HEK293-GLP-1R-CRE cells lookup, item H[dS]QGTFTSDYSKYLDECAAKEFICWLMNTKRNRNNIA (linker 17-24 via L1″) [mTA 15: OXM (B) and L1]
[A] 0.03

This collection of values is drawn from patent US20180344812A1.
